Taken from paper PMC8689140.

# measurementDescription: Metabolite identification in dog plasma after oral dose
# Assay type: in vivo
# measurementContext: pooled dog plasma after single oral dose of (+)-13e at 3 μmol/kg
# Relative abundance UV area % in dog plasma values compiled below
Give the value in % but do not write % after it.

Known results for molecules:
Value of measured Relative abundance UV area % in dog plasma for the entry COc1cc2c(cc1OCC(F)(F)F)CCN1CC(CC(C)C)C(OC3OC(C(=O)O)C(O)C(O)C3O)CC21 (centres unmarked) [M563] : 9.92

The molecule listed as CC(C)(O)C[C@@H]1CN2CCc3cc(OCC(F)(F)F)c(OC4OC(C(=O)O)C(O)C(O)C4O)cc3[C@H]2C[C@H]1O (some centres unmarked) [M565] has a reported Relative abundance UV area % in dog plasma of 10.2

Given item COc1cc2c(cc1OCC(F)(F)F)CCN1C[C@@H](CC(C)(C)OC3OC(C(=O)O)C(O)C(O)C3O)[C@H](O)C[C@H]21 (some centres unmarked) [M579-1] , the value recorded as its Relative abundance UV area % in dog plasma is 3.43

The reported value for COc1cc2c(cc1OCC(F)(F)F)CCN1CC(CC(C)(C)O)C(O)CC21 (centres unmarked) [M403-2] in terms of Relative abundance UV area % in dog plasma is 9.69

Next:
Looking up CC(C)C[C@@H]1CN2CCc3cc(OCC(F)(F)F)c(OC4OC(C(=O)O)C(O)C(O)C4O)cc3[C@H]2C[C@H]1O (some centres unmarked) [M549] , I see its Relative abundance UV area % in dog plasma listed as 7.47

---

# measurementDescription: PK in dogs after single oral or intravenous dose
# Type: in vivo, dog
# measurementContext: dog, single intravenous dose 0.6 μmol/kg; read-out: Cl, Cl/F (converted)
parameterMeasured: clearance (mL/min/kg)
// return numeric value only (unit: mL/min/kg, not printed)

Please fill in: clearance reported for COc1cc2c(cc1OCC(F)(F)F)CCN1CC(CC(C)C)C(O)CC21 (single isomer, unassigned; (+)) [(+)-13e] = 23.3

What the record says about COc1cc2c(cc1OC)[C@H]1C[C@@H](OC(=O)[C@@H](N)C(C)C)[C@H](CC(C)C)CN1CC2 [VBZ, Valbenazine ditosylate, reference compound] : clearance is 6

---

# measurementDescription: PK in dogs after single oral or intravenous dose
# Format: in vivo, dog
# measurementContext: male, beagle, dog, plasma; dogs, oral 3 μmol/kg vs intravenous 0.6 μmol/kg; read-out: absolute oral bioavailability
The compounds listed here are annotated with their bioavailability.
Report the value in % with no unit label.

So for COc1cc2c(cc1OC)[C@H]1C[C@@H](OC(=O)[C@@H](N)C(C)C)[C@H](CC(C)C)CN1CC2 [VBZ, Valbenazine ditosylate, reference compound] , the logged bioavailability turned out to be 74.1

More entries:
Please fill in: bioavailability reported for COc1cc2c(cc1OCC(F)(F)F)CCN1CC(CC(C)C)C(O)CC21 (single isomer, unassigned; (+)) [(+)-13e] = 75.9

---

# measurementDescription: Bidirectional permeability in Caco-2 cell monolayers
# Assay type: in vitro ADME
# measurementContext: human, Caco-2, with or without verapamil 30 μM (range covers both); 2.0, 10.0, and 100 µM, presence or absence of verapamil 30 μM, 2 h; read-out: mean Papp (AP→BL)
# Description: Caco-2 cells (ATCC, United States) were seeded on a 96-multiwell insert system (Corning, United States) at a density of 1.0 × 10^5 cells/cm^2. After about 24 days of culture, […] permeability was measured to evaluate the integrity of Caco-2 cell monolayers, and the percent of lucifer yellow in basolateral well which should be less than 1%. […] Permeability coefficient (Papp) and the efflux ratio (ER = P app (BL→AP)/P app (AP→BL)) were calculated.
parameterMeasured: Papp A→B at 2 h

# Papp A→B at 2 h of COc1cc2c(cc1OCC(F)(F)F)CCN1CC(CC(C)C)C(O)CC21 (single isomer, unassigned; (+)) [(+)-13e] = 26 to 35 ×10⁻⁶ cm/s
